- System: Crj:CD(SD)IGS rats
- conditionContext: rat, in vivo
experimentalReadout: Histopathological findings (PLsis) Lung

Examples from the recorded data:
{"molecule": "CC/C(=C(\\c1ccccc1)c1ccc(OCCN(C)C)cc1)c1ccccc1", "studyTarget": "Crj:CD(SD)IGS rats", "Histopathological findings (PLsis) Lung": "+"}
{"molecule": "CCCCc1oc2ccccc2c1C(=O)c1cc(I)c(OCCN(CC)CC)c(I)c1", "studyTarget": "Crj:CD(SD)IGS rats", "Histopathological findings (PLsis) Lung": "++"}
{"molecule": "CCN(CC)CCCC(C)Nc1ccnc2cc(Cl)ccc12 (stereo not drawn)", "studyTarget": "Crj:CD(SD)IGS rats", "Histopathological findings (PLsis) Lung": "−"}
{"molecule": "C1CCC(C(CC2CCCCN2)C2CCCCC2)CC1 (stereo not drawn)", "studyTarget": "Crj:CD(SD)IGS rats", "Histopathological findings (PLsis) Lung": "+"}
{"molecule": "CCN(CC)CCCC(C)Nc1c2ccc(Cl)cc2nc2ccc(OC)cc12 (stereo not drawn)", "studyTarget": "Crj:CD(SD)IGS rats", "Histopathological findings (PLsis) Lung": "+"}

Then this molecule:
Exercise: Report Histopathological findings (PLsis) Lung for CN(C)CCCN1c2ccccc2CCc2ccccc21 please.
Solution: +

---

- System: Crj:CD(SD)IGS rats
- conditionContext: rat, in vivo
experimentalReadout: Histopathological findings (PLsis) Liver

Examples from the recorded data:
{"compound": "CC/C(=C(\\c1ccccc1)c1ccc(OCCN(C)C)cc1)c1ccccc1", "experimentalReadout": "Histopathological findings (PLsis) Liver", "testValue": "−"}
{"compound": "CCN(CC)CCCC(C)Nc1c2ccc(Cl)cc2nc2ccc(OC)cc12 (stereo not drawn)", "experimentalReadout": "Histopathological findings (PLsis) Liver", "testValue": "++"}
{"compound": "C1CCC(C(CC2CCCCN2)C2CCCCC2)CC1 (stereo not drawn)", "experimentalReadout": "Histopathological findings (PLsis) Liver", "testValue": "−"}
{"compound": "CN(C)CCCN1c2ccccc2CCc2ccccc21", "experimentalReadout": "Histopathological findings (PLsis) Liver", "testValue": "++"}

Exercise: Report Histopathological findings (PLsis) Liver for CCN(CC)CCCC(C)Nc1ccnc2cc(Cl)ccc12 (stereo not drawn) please.
Solution: +

Exercise: // repeat for CCCCc1oc2ccccc2c1C(=O)c1cc(I)c(OCCN(CC)CC)c(I)c1 and report
Solution: −

---

Catalogue of Number of expression variation probe sets, Decreased expression values
- Tested on: blood
- assayDetails: GeneChip analysis of blood (Rat Expression Array 230A), 3-day administration
- Format: in vivo
- conditionContext: rat blood 24 hr after 3 consecutive days of oral administration, pooled, 3 rats per group; dose per compound in table
- Experimental: At 24 hr after completion of the oral administration for 3 consecutive days in Example 1, the blood was collected from the compound administration group and the control (non-administration) group (3 rats per group), which was pooled and subjected to GeneChip analysis. After collection using PAXgene Blood RNA Tube (PreAnalytiX), the blood was stood for 2 hr or more, and cryopreserved at −80° C. Total RNA was extracted using a PAXgene Blood RNA Kit (PreAnalytiX). […]
Lab note: jot down the number only; don't add units.

{"compound": "CNCCC(Oc1ccc(C(F)(F)F)cc1)c1ccccc1 (stereo not drawn) [Fluoxetine, fluoxetine]", "testValue": 391}
{"compound": "CCCCc1oc2ccccc2c1C(=O)c1cc(I)c(OCCN(CC)CC)c(I)c1 [Amiodarone, amiodarone]", "testValue": 282}
{"compound": "C1CCC(C(CC2CCCCN2)C2CCCCC2)CC1 (stereo not drawn) [Perhexiline, perhexiline]", "testValue": 179}
{"compound": "CC/C(=C(\\c1ccccc1)c1ccc(OCCN(C)C)cc1)c1ccccc1 [Tamoxifen, tamoxifen]", "testValue": 94}
{"compound": "CCN(CC)CCCC(C)Nc1ccnc2cc(Cl)ccc12 (stereo not drawn) [Chloroquine, chloroquine]", "testValue": 318}

Then this compound:
Exercise: Request - read-out Number of expression variation probe sets, Decreased expression | tested on blood | compound CCN(CC)CCCC(C)Nc1c2ccc(Cl)cc2nc2ccc(OC)cc12 (stereo not drawn) [Quinacrine, quinacrine]
Solution: 392

---

- Tested on: Crj:CD(SD)IGS rats
- conditionContext: rat, in vivo
experimentalReadout: Histopathological findings (PLsis) Liver

{"compound": "C1CCC(C(CC2CCCCN2)C2CCCCC2)CC1 (stereo not drawn)", "Histopathological findings (PLsis) Liver": "−"}
{"compound": "CCCCc1oc2ccccc2c1C(=O)c1cc(I)c(OCCN(CC)CC)c(I)c1", "Histopathological findings (PLsis) Liver": "−"}
{"compound": "CC/C(=C(\\c1ccccc1)c1ccc(OCCN(C)C)cc1)c1ccccc1", "Histopathological findings (PLsis) Liver": "+"}
{"compound": "CCN(CC)CCCC(C)Nc1c2ccc(Cl)cc2nc2ccc(OC)cc12 (stereo not drawn)", "Histopathological findings (PLsis) Liver": "+"}
{"compound": "CNCCC(Oc1ccc(C(F)(F)F)cc1)c1ccccc1 (stereo not drawn)", "Histopathological findings (PLsis) Liver": "+"}

Exercise: Request - read-out Histopathological findings (PLsis) Liver | tested on Crj:CD(SD)IGS rats | compound CCN(CC)CCCC(C)Nc1ccnc2cc(Cl)ccc12 (stereo not drawn)
Solution: −

---

- Test system: Crj:CD(SD)IGS rats
- conditionContext: rat, in vivo
experimentalReadout: Histopathological findings (PLsis) Kidney

Examples from the recorded data:
{"molecule": "CCN(CC)CCCC(C)Nc1c2ccc(Cl)cc2nc2ccc(OC)cc12 (stereo not drawn) [Quinacrine, quinacrine]", "testValue": "+"}
{"molecule": "CCN(CC)CCCC(C)Nc1ccnc2cc(Cl)ccc12 (stereo not drawn) [Chloroquine, chloroquine]", "testValue": "−"}
{"molecule": "CCCCc1oc2ccccc2c1C(=O)c1cc(I)c(OCCN(CC)CC)c(I)c1 [Amiodarone, amiodarone]", "testValue": "−"}
{"molecule": "CN(C)CCCN1c2ccccc2CCc2ccccc21 [Imipramine, imipramine]", "testValue": "−"}
{"molecule": "CC/C(=C(\\c1ccccc1)c1ccc(OCCN(C)C)cc1)c1ccccc1 [Tamoxifen, tamoxifen]", "testValue": "−"}

Then this molecule:
Exercise: Report Histopathological findings (PLsis) Kidney for C1CCC(C(CC2CCCCN2)C2CCCCC2)CC1 (stereo not drawn) [Perhexiline, perhexiline] please.
Solution: −

---

- Test system: Crj:CD(SD)IGS rats
- conditionContext: rat, in vivo
experimentalReadout: Histopathological findings (PLsis) Others

Examples from the recorded data:
{"compound": "CCCCc1oc2ccccc2c1C(=O)c1cc(I)c(OCCN(CC)CC)c(I)c1 [Amiodarone, amiodarone]", "testValue": "−"}
{"compound": "C1CCC(C(CC2CCCCN2)C2CCCCC2)CC1 (stereo not drawn) [Perhexiline, perhexiline]", "testValue": "−"}
{"compound": "CC/C(=C(\\c1ccccc1)c1ccc(OCCN(C)C)cc1)c1ccccc1 [Tamoxifen, tamoxifen]", "testValue": "−"}
{"compound": "CCN(CC)CCCC(C)Nc1c2ccc(Cl)cc2nc2ccc(OC)cc12 (stereo not drawn) [Quinacrine, quinacrine]", "testValue": "−"}
{"compound": "CNCCC(Oc1ccc(C(F)(F)F)cc1)c1ccccc1 (stereo not drawn) [Fluoxetine, fluoxetine]", "testValue": "brain"}

Then this compound:
Exercise: Report Histopathological findings (PLsis) Others for CCN(CC)CCCC(C)Nc1ccnc2cc(Cl)ccc12 (stereo not drawn) [Chloroquine, chloroquine] please.
Solution: −

---

- System: Crj:CD(SD)IGS rats
- conditionContext: rat, in vivo
experimentalReadout: Histopathological findings (PLsis) Spleen

Examples from the recorded data:
{"compound": "CCCCc1oc2ccccc2c1C(=O)c1cc(I)c(OCCN(CC)CC)c(I)c1", "studyTarget": "Crj:CD(SD)IGS rats", "testValue": "−"}
{"compound": "CCN(CC)CCCC(C)Nc1ccnc2cc(Cl)ccc12 (stereo not drawn)", "studyTarget": "Crj:CD(SD)IGS rats", "testValue": "+"}
{"compound": "C1CCC(C(CC2CCCCN2)C2CCCCC2)CC1 (stereo not drawn)", "studyTarget": "Crj:CD(SD)IGS rats", "testValue": "−"}
{"compound": "CN(C)CCCN1c2ccccc2CCc2ccccc21", "studyTarget": "Crj:CD(SD)IGS rats", "testValue": "−"}
{"compound": "CC/C(=C(\\c1ccccc1)c1ccc(OCCN(C)C)cc1)c1ccccc1", "studyTarget": "Crj:CD(SD)IGS rats", "testValue": "−"}

Then this compound:
Exercise: Report Histopathological findings (PLsis) Spleen for CCN(CC)CCCC(C)Nc1c2ccc(Cl)cc2nc2ccc(OC)cc12 (stereo not drawn) please.
Solution: +

---

- System: Crj:CD(SD)IGS rats
- conditionContext: rat, in vivo
experimentalReadout: Histopathological findings (PLsis) Lung

Examples from the recorded data:
{"compound": "CCCCc1oc2ccccc2c1C(=O)c1cc(I)c(OCCN(CC)CC)c(I)c1 [Amiodarone, amiodarone]", "Histopathological findings (PLsis) Lung": "+"}
{"compound": "CNCCC(Oc1ccc(C(F)(F)F)cc1)c1ccccc1 (stereo not drawn) [Fluoxetine, fluoxetine]", "Histopathological findings (PLsis) Lung": "+"}
{"compound": "CCN(CC)CCCC(C)Nc1c2ccc(Cl)cc2nc2ccc(OC)cc12 (stereo not drawn) [Quinacrine, quinacrine]", "Histopathological findings (PLsis) Lung": "+"}
{"compound": "CCN(CC)CCCC(C)Nc1ccnc2cc(Cl)ccc12 (stereo not drawn) [Chloroquine, chloroquine]", "Histopathological findings (PLsis) Lung": "−"}
{"compound": "C1CCC(C(CC2CCCCN2)C2CCCCC2)CC1 (stereo not drawn) [Perhexiline, perhexiline]", "Histopathological findings (PLsis) Lung": "+"}

Then this compound:
Exercise: Request - read-out Histopathological findings (PLsis) Lung | tested on Crj:CD(SD)IGS rats | compound CC/C(=C(\c1ccccc1)c1ccc(OCCN(C)C)cc1)c1ccccc1 [Tamoxifen, tamoxifen]
Solution: +

Data origin, for the record: patent US20100129790A1
